- Test system: MCF10A
- TEST SUMMARY: one-nucleolus phenotype percent effect (relative to siNT 0% and siNOL11 100%); higher = more cells with one nucleolus (ribosome biogenesis inhibition)
- CONDITION: 20 nM; 72 h
MEASURE: one-nucleolus phenotype percent effect (%)
Please state the figure in %; there is no need to write the unit.

Value of measured one-nucleolus phenotype percent effect for the entry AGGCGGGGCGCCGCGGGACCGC [hsa-miR-663a] : 0.191

Value of measured one-nucleolus phenotype percent effect for the entry CAGGAUGUGGUCAAGUGUUGUU [hsa-miR-1265] : -25.1

Value of measured one-nucleolus phenotype percent effect for the entry UGAGCUGCUGUACCAAAAU [hsa-miR-558] : 6.73

Value of measured one-nucleolus phenotype percent effect for the entry UAGUGGUCAGAGGGCUUAUGA [hsa-miR-6718-5p] : 39.8

Value of measured one-nucleolus phenotype percent effect for the entry CUGGACUUUGAUCUUGCCAUAA [hsa-miR-8058] : 32.1

Value of measured one-nucleolus phenotype percent effect for the entry UCCUGCCACCUCCUCCGCAG [hsa-miR-6727-3p] : 19.2
